The origin of these recorded values is patent US20130136748A1.

# Tested target: hHER3 full length (human, UniProt P21860 20-1342)
# Measurement notes: cell-based or functional assay
This section presents binders with their documented IC50, HRG1-β1 induced pHER3, MCF-7 values.
Write it as a number; the unit M goes unstated.

Below, each entry is followed by its recorded IC50, HRG1-β1 induced pHER3, MCF-7 result.
[[record]]
binder = "21B02 (VHH) VHH: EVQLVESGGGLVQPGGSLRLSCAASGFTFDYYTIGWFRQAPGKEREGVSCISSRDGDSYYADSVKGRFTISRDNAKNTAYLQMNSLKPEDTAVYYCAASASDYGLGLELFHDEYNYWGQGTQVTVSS"
assay_value = "4.88e-08"

[[record]]
binder = "05A09 (VHH) VHH: EVQLVESGGGLVQAGGSLRLSCAASGFTFDDYAIGWFRQAPGKEREGVSCISSSDGSTVYADSVKGRFTISSDNAKNTVYLQMNSLKPEDTAVYYCAAERRRGYSDLCRFYYGMDYWGKGTQVTVSS"
assay_value = "9.12e-08"

[[record]]
binder = "34A04 (VHH) VHH: EVQLVESGGGLVQAGGSLRLSCAASGFTFDDYTIGWFRQAPGKEREEISCISNNDGSTYYTNSVKGRFTISSDNAKNTVYLQMNSLKPEDTAVYYCAASPHGCWYDLIPLQADFGSWGQGTQVTVSS"
assay_value = "3.02e-08"


Q: Fill in the blank: the reported IC50, HRG1-β1 induced pHER3, MCF-7 of 23F05 (VHH) VHH: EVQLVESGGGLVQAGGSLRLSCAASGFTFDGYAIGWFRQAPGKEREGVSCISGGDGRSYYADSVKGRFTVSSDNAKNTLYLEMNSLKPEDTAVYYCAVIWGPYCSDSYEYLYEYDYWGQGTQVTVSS is ____.
Result: 1.77e-08

Q: Likewise for 17B05 (VHH, also called HER3MS17B05; HER3MS017B05) VHH: EVQLVESGGGLVQPGGSLRLSCAASGSIGGLNAMAWYRQAPGKERELVAGIFGVGSTRYADSVKGRFTISRDIAKNTVFLQMNSLNSEDTAVYYCRMSSVTRGSSDYWGQGTQVTVSS ?
Result: 5.34e-09

Q: Likewise for 04C07 (VHH, also called HER3MS04C07; HER3MS004C07) VHH: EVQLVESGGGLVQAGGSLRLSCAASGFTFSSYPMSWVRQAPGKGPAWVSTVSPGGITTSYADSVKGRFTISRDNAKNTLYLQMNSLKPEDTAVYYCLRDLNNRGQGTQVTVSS ?
Result: 1.07e-09

Q: Likewise for 18E08 (VHH) VHH: EVQLVESGGGLVQPGGSLRLSCAASGTLFKINAMGWYRQAPGKQRELVALITSSDTTDYAESVEGRFTISRDNTWNAVYLQMNSLKPEDTAVYYCHSDHYSMGVPEKRVIMYGQGTQVTVSS ?
Result: 6.39e-08

Q: Likewise for 34C07 (VHH, c-myc, His6-tagged form as expressed; also called 34C7; HER3MS34C07) VHH: EVQLVESGGGLVQPGGSLGLSCVASGSIFRINAMAWYRQAPGKQRELVAEITAGGSTNYADSVKGRFTISVDNAWNTLYLQMNSLKVEDTAVYYCNLDHYTTWDRRSAYWGQGTQVTVSS ?
Result: 1.89e-08

Q: Likewise for 17E08 (VHH) VHH: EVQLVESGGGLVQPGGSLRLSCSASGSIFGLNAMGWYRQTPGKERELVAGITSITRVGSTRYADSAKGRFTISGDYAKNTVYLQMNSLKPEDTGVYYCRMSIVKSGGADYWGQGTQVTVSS ?
Result: 4.51e-09

Q: Likewise for 18B05 (VHH) VHH: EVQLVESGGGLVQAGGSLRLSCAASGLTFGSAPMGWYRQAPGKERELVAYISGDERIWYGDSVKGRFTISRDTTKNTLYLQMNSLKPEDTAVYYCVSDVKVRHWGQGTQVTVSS ?
Result: 5.18e-09
